- System Name: 5-hydroxytryptamine receptor 2A (Homo sapiens, UniProt P28223)
- Sequence (P28223 whole entry): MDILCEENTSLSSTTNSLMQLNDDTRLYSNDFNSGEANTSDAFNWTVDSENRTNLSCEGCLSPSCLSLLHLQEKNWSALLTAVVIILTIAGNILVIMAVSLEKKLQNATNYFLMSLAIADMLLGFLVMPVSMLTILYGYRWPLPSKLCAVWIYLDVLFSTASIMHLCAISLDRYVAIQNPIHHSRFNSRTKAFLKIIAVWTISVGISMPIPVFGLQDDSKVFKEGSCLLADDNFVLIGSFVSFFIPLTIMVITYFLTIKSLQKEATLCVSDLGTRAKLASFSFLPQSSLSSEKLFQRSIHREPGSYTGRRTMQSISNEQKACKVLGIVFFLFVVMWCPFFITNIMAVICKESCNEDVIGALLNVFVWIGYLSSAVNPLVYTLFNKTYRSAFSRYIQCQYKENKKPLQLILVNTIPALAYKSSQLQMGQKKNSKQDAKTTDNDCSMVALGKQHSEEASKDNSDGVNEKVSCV
- Assay Explanation: Displacement of [3H]Ketanserin from human 5HT2A receptor at 10 uM
Quantity Measured: inhibition (%)
Reply with just the number (in %).

Consider the reported inhibition for these molecules:
O=C(Nc1ccccc1)N1OCC2COc3ccccc3C21 (centres undefined): 11
Cc1ccccc1NC(=O)N1OCC2COc3ccccc3C21 (centres undefined): 12.8

Kindly state the measured inhibition obtained for CCCNC(=O)N1OCC2COc3ccccc3C21 (centres undefined) with 5-hydroxytryptamine receptor 2A (Homo sapiens, UniProt P28223).
2.4

Kindly state the measured inhibition obtained for CCCCNC(=O)N1OCC2COc3ccccc3C21 (centres undefined) with 5-hydroxytryptamine receptor 2A (Homo sapiens, UniProt P28223).
0.8

----------
- System Name: 5-hydroxytryptamine receptor 2B (Homo sapiens)
- Sequence (P41595 whole entry): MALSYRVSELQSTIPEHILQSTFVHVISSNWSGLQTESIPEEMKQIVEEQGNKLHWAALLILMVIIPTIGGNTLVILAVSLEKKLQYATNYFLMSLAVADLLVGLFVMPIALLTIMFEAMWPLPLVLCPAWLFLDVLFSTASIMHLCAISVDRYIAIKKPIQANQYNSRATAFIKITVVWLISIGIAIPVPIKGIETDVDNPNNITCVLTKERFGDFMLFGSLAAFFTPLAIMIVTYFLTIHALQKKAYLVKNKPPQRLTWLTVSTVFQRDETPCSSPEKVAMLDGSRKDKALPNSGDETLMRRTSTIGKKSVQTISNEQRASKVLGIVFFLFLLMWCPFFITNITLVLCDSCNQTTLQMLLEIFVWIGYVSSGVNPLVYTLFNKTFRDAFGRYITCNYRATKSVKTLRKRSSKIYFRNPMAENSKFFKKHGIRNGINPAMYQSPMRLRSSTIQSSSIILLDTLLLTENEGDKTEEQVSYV
- Assay Explanation: Agonist activity at human 5HT2B receptor assessed as 10633-induced calcium mobilization by FLIPR assay
- Assay type: functional
pEC50: −log10 of the molar value.
Quantity Measured: pEC50

If you can, please state the reported pEC50 value of O=C(NC1CCCCC1)N1OCC2CSc3ccc(F)cc3C21 (stereo unspecified) .
< 5.00

----------
- System Name: UniProt P28335
- Sequence (P28335 whole entry): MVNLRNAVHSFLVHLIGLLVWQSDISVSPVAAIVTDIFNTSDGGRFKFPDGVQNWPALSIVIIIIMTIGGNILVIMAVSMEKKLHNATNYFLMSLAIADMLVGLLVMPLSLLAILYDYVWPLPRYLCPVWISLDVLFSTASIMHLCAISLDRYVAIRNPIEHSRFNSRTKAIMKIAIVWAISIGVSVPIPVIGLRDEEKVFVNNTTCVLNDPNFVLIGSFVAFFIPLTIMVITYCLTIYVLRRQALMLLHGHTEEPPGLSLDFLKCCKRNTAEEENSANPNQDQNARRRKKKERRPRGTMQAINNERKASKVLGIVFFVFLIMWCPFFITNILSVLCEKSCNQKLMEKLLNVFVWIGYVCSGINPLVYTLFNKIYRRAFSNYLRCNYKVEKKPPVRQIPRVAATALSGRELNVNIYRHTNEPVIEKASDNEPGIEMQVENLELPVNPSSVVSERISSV
- Assay Explanation: Agonist activity at human 5HT2C receptor assessed as 10633-induced calcium mobilization by FLIPR assay
- Type: functional
Quantity Measured: EC50

If you can, please state the reported EC50 value of O=C(NC1CCCCC1)N1OCC2CSc3ccc(F)cc3C21 (stereo unspecified) .
> 10 µM

----------
- System Name: 5-hydroxytryptamine receptor 2B (Homo sapiens)
- Assay Explanation: Displacement of [3H]LSD from human 5HT2B receptor at 10 uM
Quantity Measured: inhibition (%)
Reply with just the number (in %).

Consider the reported inhibition for these molecules:
CCCNC(=O)N1OCC2COc3ccccc3C21 (configuration not stated): 53.5
CC(C)(C)NC(=O)N1OCC2COc3ccccc3C21 (configuration not stated): 43
CCCNC(=O)N1OCC2CSc3ccc(F)cc3C21 (configuration not stated): 93
O=C(Nc1ccccc1)N1OCC2CSc3ccc(F)cc3C21 (configuration not stated): 95.3
CC(C)NC(=O)N1OCC2CSc3ccc(F)cc3C21 (configuration not stated): 89.3
CCCCNC(=O)N1OCC2CSc3ccc(F)cc3C21 (configuration not stated): 92
CC(C)NC(=O)N1OCC2COc3ccccc3C21 (configuration not stated): 14.8
O=C(Nc1ccccc1)N1OCC2COc3ccccc3C21 (configuration not stated): 71.6
O=C(NC1CCCCC1)N1OCC2CSc3ccc(F)cc3C21 (configuration not stated): 102
Cc1ccccc1NC(=O)N1OCC2COc3ccccc3C21 (configuration not stated): 52.2

If you can, please state the reported inhibition value of CCCCNC(=O)N1OCC2COc3ccccc3C21 (configuration not stated) .
35.4

If you can, please state the reported inhibition value of O=C(NC1CCCCC1)N1OCC2COc3ccccc3C21 (configuration not stated) .
75.5

Values from ChEMBL document CHEMBL1221330
